system: Candida albicans ATCC 60193; test: Serial broth dilution in liquid medium, C. albicans; assay type: cell-based; conditions: ATCC60193, Mueller-Hinton broth, 48 hours, 50% reduction of microbial growth, n = 3
PROPERTY NAME: EC50
Please append the unit to your numeric answer.

Problem: Quick one: EC50 for Cc1cc(NS(=O)(=O)c2ccc(NCCC(=O)NN=Cc3ccc([N+](=O)[O-])o3)cc2)no1 [Compound 16b] ?
Result: 85.5 µM

---

PROPERTY NAME: melting point

| COMPOUND | melting point |
| --- | --- |
| Cc1cc(NS(=O)(=O)c2ccc(NCCC(=O)NN=Cc3ccc([N+](=O)[O-])o3)cc2)no1 [Compound 16b] | 221 to 222 °C |
| COc1ccc(C=NNC(=O)CCNc2ccc(S(=O)(=O)Nc3cc(C)on3)cc2)cc1 [Compound 15g] | 206 to 207 °C |
| Cc1cc(NS(=O)(=O)c2ccc(NC=CC(=O)Nn3c(C)ccc3C)cc2)no1 | 118 to 119 °C |
| Cc1cc(NS(=O)(=O)c2ccc(NCCC(=O)NN=Cc3ccco3)cc2)no1 [Compound 16a] | 185 to 186 °C |
| Cc1cc(NS(=O)(=O)c2ccc(NC=CC(=O)Nc3ccc(S(N)(=O)=O)cc3)cc2)no1 | 213 to 214 °C |

Let us move to another entry and its melting point.
Problem: Quick one: melting point for Cc1cc(NS(=O)(=O)c2ccc(NCCC(=O)NN=Cc3cccs3)cc2)no1 [Compound 16c] ?
Result: 215 to 216 °C

---

PROPERTY NAME: melting point

Here are 3 compounds together with their reported answers.
| COMPOUND | melting point |
| --- | --- |
| Cc1cc(NS(=O)(=O)c2ccc(NCCc3n[nH]c(=S)n3-c3ccccc3)cc2)no1 [Compound 13] | 222 to 223 °C |
| Cc1cc(NS(=O)(=O)c2ccc(NCCC(=O)NN=Cc3ccc(O)cc3)cc2)no1 [Compound 15c] | 218 to 219 °C |
| Cc1cc(NS(=O)(=O)c2ccc(NCCC(=O)NN=Cc3ccccc3)cc2)no1 [Compound 15a] | 199 to 200 °C |

Let us move to another entry and its melting point.
Problem: Quick one: melting point for Cc1cc(NS(=O)(=O)c2ccc(NCCC(=O)NN=Cc3ccc(F)cc3)cc2)no1 [Compound 15d] ?
Result: 213 to 214 °C

---

PROPERTY NAME: melting point

Here are 7 compounds together with their reported answers.
| COMPOUND | melting point |
| --- | --- |
| Cc1cc(NS(=O)(=O)c2ccc(NCCC(=O)NN=Cc3ccccc3Cl)cc2)no1 [Compound 15e] | 202 to 203 °C |
| Cc1cc(NS(=O)(=O)c2ccc(NCCC(=O)NN=Cc3cccc([N+](=O)[O-])c3)cc2)no1 [Compound 15h] | 208 to 209 °C |
| Cc1cc(NS(=O)(=O)c2ccc(NCCC(=O)NN=Cc3ccc(Cl)cc3)cc2)no1 [Compound 15f] | 210 to 211 °C |
| Cc1cc(NS(=O)(=O)c2ccc(NCCC(=O)NN=Cc3ccc([N+](=O)[O-])s3)cc2)no1 [Compound 16d] | 195 to 196 °C |
| Cc1cc(NS(=O)(=O)c2ccc(NCCC(=O)NN=Cc3ccccc3O)cc2)no1 [Compound 15b] | 193 to 194 °C |
| Cc1cc(NS(=O)(=O)c2ccc(NCCC(=O)NNC(=S)Nc3ccccc3)cc2)no1 | 183 to 184 °C |
| Cc1cc(NS(=O)(=O)c2ccc(NCCC(=O)NN=Cc3ccc([N+](=O)[O-])cc3)cc2)no1 [Compound 15j] | 214 to 215 °C |

Let us move to another entry and its melting point.
Problem: Quick one: melting point for Cc1cc(NS(=O)(=O)c2ccc(NCCC(=O)NN=Cc3cc([N+](=O)[O-])ccc3Cl)cc2)no1 [Compound 15i] ?
Result: 210 to 211 °C

---

This section presents compounds with their documented melting point values.

| COMPOUND | REPORTED |
| --- | --- |
| Cc1cc(NS(=O)(=O)c2ccc(NCCC(=O)O)cc2)no1 [Compound 2] | 188 to 189 °C |
| Cc1cc(NS(=O)(=O)c2ccc(N(CCC(=O)O)C(N)=S)cc2)no1 [Compound 6a] | 182 to 183 °C |
| Cc1cc(NS(=O)(=O)c2ccc(NCCC(=O)NNC(=O)Nc3ccccc3)cc2)no1 [Compound 10] | 204 to 205 °C |
| Cc1cc(NS(=O)(=O)c2ccc(NCCC(=O)NN=Cc3cccc4ccccc34)cc2)no1 [Compound 15k] | 206 to 207 °C |
| Cc1cc(NS(=O)(=O)c2ccc(NCCc3n[nH]c(=O)n3-c3ccccc3)cc2)no1 [Compound 12] | 188 to 189 °C |
| COC(=O)CCNc1ccc(S(=O)(=O)Nc2cc(C)on2)cc1 [Compound 3] | 148 to 149 °C |

Problem: Quick one: melting point for Cc1cc(NS(=O)(=O)c2ccc(N3CCC(=O)NC3=S)cc2)no1 [Compound 6] ?
Result: 240 to 241 °C

Problem: Quick one: melting point for Cc1cc(C)n(C(=O)CCNc2ccc(S(=O)(=O)Nc3cc(C)on3)cc2)n1 [Compound 9] ?
Result: 144 to 145 °C

Problem: Quick one: melting point for Cc1cc(NS(=O)(=O)c2ccc(NCCC(=O)NN=C3C(=O)Nc4ccccc43)cc2)no1 [Compound 14] ?
Result: 209 to 210 °C
